Give measured % inhibition Aβ42 aggregation @ 10 μM for each item. Keep answers brief.
target.desc: Aβ42 (Homo sapiens, UniProt P05067)
Construct: expressed in transfected cells; host or cells: Escherichia coli BL21 (DE3), pET28a
Sequence (P05067 672-713 limits assumed): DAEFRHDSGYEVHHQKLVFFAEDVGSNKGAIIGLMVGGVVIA
method: Inhibition of Aβ42 aggregation in intact E. coli cells overexpressing Aβ42 (ThS fluorescence)
Assay type: cell-based, Escherichia coli
run.parameters: intact E. coli cells, compound 10 μM, mean ± SEM of four independent experiments; 10 µM
State just the number; it will be interpreted in %.

**Q:** # query: % inhibition Aβ42 aggregation @ 10 μM of entry "O=C(O)CN1C(=O)S/C(=C\c2ccc3[nH]c4ccc(/C=C5\SC(=O)N(CC(=O)O)C5=O)cc4c3c2)C1=O"
**A:** 32.1

**Q:** # query: % inhibition Aβ42 aggregation @ 10 μM of entry "CCOC(=O)CN1C(=O)S/C(=C\c2ccc3[nH]c4ccc(/C=C5\SC(=O)N(CC(=O)OCC)C5=O)cc4c3c2)C1=O"
**A:** 31.9

**Q:** # query: % inhibition Aβ42 aggregation @ 10 μM of entry "CCOC(=O)CN1C(=O)S/C(=C\c2ccc(/C=C3\SC(=O)N(CC(=O)OCC)C3=O)cc2)C1=O"
**A:** 40.7

**Q:** # query: % inhibition Aβ42 aggregation @ 10 μM of entry "CN(C)CCN1C(=O)S/C(=C\c2ccc3c(c2)C(C)(C)c2cc(/C=C4\SC(=O)N(CCN(C)C)C4=O)ccc2-3)C1=O"
**A:** 44.8

Every entry's value here was drawn from paper PMC9732823.
